In this section we review reported EC50 values for a set of molecules.
# target entity: UniProt P20309
# Sequence (P20309 whole entry): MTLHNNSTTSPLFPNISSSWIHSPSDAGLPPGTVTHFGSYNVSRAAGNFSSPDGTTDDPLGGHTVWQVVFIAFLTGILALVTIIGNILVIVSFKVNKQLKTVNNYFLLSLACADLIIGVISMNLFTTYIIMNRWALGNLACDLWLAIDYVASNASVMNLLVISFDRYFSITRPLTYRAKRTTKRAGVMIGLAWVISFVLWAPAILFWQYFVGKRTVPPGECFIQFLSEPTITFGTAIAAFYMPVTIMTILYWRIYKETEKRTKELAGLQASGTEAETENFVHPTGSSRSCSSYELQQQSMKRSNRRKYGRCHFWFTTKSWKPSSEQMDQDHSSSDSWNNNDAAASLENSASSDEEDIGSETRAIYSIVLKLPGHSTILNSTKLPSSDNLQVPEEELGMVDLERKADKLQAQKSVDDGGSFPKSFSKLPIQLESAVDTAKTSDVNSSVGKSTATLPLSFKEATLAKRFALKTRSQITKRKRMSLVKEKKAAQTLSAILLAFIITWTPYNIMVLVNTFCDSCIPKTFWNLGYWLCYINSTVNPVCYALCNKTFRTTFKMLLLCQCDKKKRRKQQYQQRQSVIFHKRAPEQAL
# assay remarks: Human M3 calcium mobilization FLIPR assay
# test context: receptor expressed in CHO cells, intracellular Ca2+ release

Answered examples (6):
molecule	target entity	result
CCOC(=O)N1CCC(C)(N2CCC(N3C(=O)CO[C@H]4CCCC[C@@H]43)CC2)C1 (single isomer, unassigned) [Example 18]	UniProt P20309	> 40 µM
COc1ccsc1C(=O)N1CCC(N2CCC(N3C(=O)OC[C@H]4CCCC[C@@H]43)CC2)CC1 (racemic)	UniProt P20309	> 40 µM
O=C(C1CC1)N1CCC(N2CCC(N3C(=O)NC[C@H]4CCCC[C@@H]43)CC2)CC1	UniProt P20309	> 49 µM
CCOC(=O)N1CCC(N2CCC(N3C(=O)OC[C@H]4CCCC[C@@H]43)CC2)CC1	UniProt P20309	> 40 µM
Cc1ccccc1C(=O)N1CCC(N2CCC(N3C(=O)NC[C@H]4CCCC[C@@H]43)CC2)CC1	UniProt P20309	> 49 µM
CC(C)OC(=O)N1CCC(N2CCC(N3C(=O)N(C)C[C@H]4CCCC[C@@H]43)CC2)CC1	UniProt P20309	> 40 µM

Note: attention shifts to another entry.
(Q) // fetch EC50 given entry CCOC(=O)N1CCC(C)(N2CCC(N3C(=O)CO[C@H]4CCCC[C@@H]43)CC2)C1 (single isomer, unassigned) [Example 19]
(A) > 40 µM

The measurements presented in this section are drawn from patent US20090221567A1.
